Target: human L-FABP T94A variant (Homo sapiens, UniProt P07148, T94A)
Sequence (P07148 1-127 T94A): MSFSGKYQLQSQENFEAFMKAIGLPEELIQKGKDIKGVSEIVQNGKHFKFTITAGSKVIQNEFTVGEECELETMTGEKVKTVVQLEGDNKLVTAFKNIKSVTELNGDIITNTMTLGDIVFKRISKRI
Assay: ANS binding to L-FABP
OBSERVATION TYPE: Kd (µM)

{"columns": ["LINE NOTATION", "RECORDED VALUE"],
 "data": [
  ["O=S(=O)(O)c1cccc2cccc(Nc3ccccc3)c12", 2.4]
]}

###

Molecular target: human wild-type L-FABP T94T (Homo sapiens, UniProt P07148)
Assay: ANS displacement assay
Assay type: binding
OBSERVATION TYPE: Ki (nM)

{"columns": ["MOLECULE", "UNITS SYMBOL", "RECORDED VALUE"],
 "data": [
  ["CC/C=C\\C/C=C\\C/C=C\\C/C=C\\C/C=C\\C/C=C\\CCC(=O)O [Docosahexaenoic acid, cis-4,7,10,13,16,19-docosahexaenoic acid]", "nM", 72],
  ["CCCCC/C=C\\C/C=C\\CCCCCCCC(=O)O", "nM", 113],
  ["CCCCC/C=C\\C/C=C\\C/C=C\\C/C=C\\CCCC(=O)O", "nM", 113],
  ["CCCCCCCCCCCCCCCC(=O)O", "nM", 38],
  ["CCCCCCCCCCCCCCCCCC(=O)O", "nM", 29],
  ["CCC=CCC=CCC=CCC=CC/C=C\\CCCC(=O)O [Eicosapentaenoic acid, cis-5,8,11,14,17-eicosapentaenoic acid]", "nM", 200]
]}

###

Molecular target: human L-FABP T94A variant (Homo sapiens, UniProt P07148, T94A)
Sequence (P07148 1-127 T94A): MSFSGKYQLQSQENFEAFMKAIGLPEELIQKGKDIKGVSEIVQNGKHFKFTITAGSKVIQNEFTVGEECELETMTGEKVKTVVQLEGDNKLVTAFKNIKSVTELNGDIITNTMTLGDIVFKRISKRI
Assay: ANS displacement assay
Assay type: binding
pKi: −log10 of the molar value.
Classify by measured pKi: Met if it is equal to or exceeds 7, Not met if it is smaller.

{"columns": ["MOLECULE", "CAT"],
 "data": [
  ["CCCCCCCCCCCCCCCCCC(=O)O", "Met"],
  ["CCC=CCC=CCC=CCC=CC/C=C\\CCCC(=O)O [Eicosapentaenoic acid, cis-5,8,11,14,17-eicosapentaenoic acid]", "Not met"],
  ["CCCCCCCCCCCCCCCC(=O)O", "Met"]
]}

###

Molecular target: human wild-type L-FABP T94T (Homo sapiens)
Assay: ANS binding to L-FABP

{"columns": ["LINE NOTATION", "SYSTEM UNDER TEST", "Kd [nM]"],
 "data": [
  ["O=S(=O)(O)c1cccc2cccc(Nc3ccccc3)c12", "human wild-type L-FABP T94T (Homo sapiens)", 2300]
]}

###

Reported Ki values for the following molecules.
Biological target: rat L-FABP (Rattus norvegicus)
Sequence (P02692 1-127): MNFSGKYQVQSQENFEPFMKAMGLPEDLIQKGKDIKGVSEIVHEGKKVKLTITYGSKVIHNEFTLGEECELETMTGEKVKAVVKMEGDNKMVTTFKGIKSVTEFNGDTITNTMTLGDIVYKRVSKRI
Assay: ANS displacement assay
Assay type: binding
OBSERVATION TYPE: Ki

{"columns": ["MOLECULE", "OBSERVATION TYPE", "RECORDED VALUE"],
 "data": [
  ["CCCCCCCCCCCCCCCC(=O)O", "Ki", "48 nM"],
  ["CC/C=C\\C/C=C\\C/C=C\\C/C=C\\C/C=C\\C/C=C\\CCC(=O)O [Docosahexaenoic acid, cis-4,7,10,13,16,19-docosahexaenoic acid]", "Ki", "81 nM"],
  ["CCC=CCC=CCC=CCC=CC/C=C\\CCCC(=O)O [Eicosapentaenoic acid, cis-5,8,11,14,17-eicosapentaenoic acid]", "Ki", "240 nM"],
  ["CCCCC/C=C\\C/C=C\\CCCCCCCC(=O)O", "Ki", "81 nM"],
  ["CCCCC/C=C\\C/C=C\\C/C=C\\C/C=C\\CCCC(=O)O", "Ki", "110 nM"],
  ["CCCCCCCC/C=C\\CCCCCCCC(=O)O", "Ki", "43 nM"],
  ["CCCCCCCCCCCCCCCCCC(=O)O", "Ki", "37 nM"]
]}
